Target: Carbonic anhydrase 1 (Homo sapiens, UniProt P00915)
Sequence (P00915 whole entry): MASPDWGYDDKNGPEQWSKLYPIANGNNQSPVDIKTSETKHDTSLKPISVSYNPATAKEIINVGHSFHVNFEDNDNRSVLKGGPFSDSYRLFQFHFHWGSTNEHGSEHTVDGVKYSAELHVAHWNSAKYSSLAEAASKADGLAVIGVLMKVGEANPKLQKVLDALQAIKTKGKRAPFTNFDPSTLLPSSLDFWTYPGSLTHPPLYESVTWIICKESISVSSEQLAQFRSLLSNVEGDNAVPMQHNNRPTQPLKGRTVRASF
quantityKind: Ki (nM)
Record the value in nM, omitting the unit from your answer.

Qu. So what's the measured Ki for this one? NS(=O)(=O)c1ccc(N2C(=O)CCSC2c2ccc(Cl)cc2)cc1 (racemic)
Ans. 62.4

====

Here we list molecules with their recorded pKi when tested on Carbonic anhydrase 2 (Homo sapiens).
To interpret pKi, take it as minus log10 of a concentration measured in moles per litre.

N#Cc1ccc(C2SCCC(=O)N2c2ccc(S(N)(=O)=O)cc2)cc1 (racemic)
8.09

Then this molecule:
Qu. Form entry - test system: Carbonic anhydrase 2 (Homo sapiens); read-out: pKi; molecule: NS(=O)(=O)c1ccc(N2C(=O)CCSC2c2ccc(Cl)cc2)cc1 (racemic)
Ans. 8.05
